molecular target: p53-MDM2 interaction (GST-MDM2 protein aa 23-117 / biotinylated p53 wt peptide) (Homo sapiens (Human)); assay: Mdm2-p53 Inhibition AlphaScreen; conditions: GST-MDM2 (aa 23-117) / biotinylated p53 wt peptide
Sequence (Q00987 23-117): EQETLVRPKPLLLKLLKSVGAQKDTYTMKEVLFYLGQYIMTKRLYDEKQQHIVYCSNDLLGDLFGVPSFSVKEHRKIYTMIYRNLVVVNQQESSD
Lab note: anything with IC50 below 4 nM is marked label 1; values at 4 nM or higher are marked label 0.

{"columns": ["compound", "category-label"],
 "data": [
  ["CCOc1cccc(CN2[C@H]3Cc4c5cc(C)c(C(=O)NC)cc5nn4[C@H]3[C@H](c3cccc(Cl)c3F)[C@]23C(=O)Nc2cc(Cl)ccc23)c1", "label 0"],
  ["CCOc1cccc(CN2[C@H]3Cc4c(nc5c(C)c(C(=O)O)ccn45)[C@H]3[C@H](c3ccnc(Cl)c3F)[C@]23C(=O)Nc2cc(Cl)ccc23)c1", "label 0"],
  ["O=C(O)c1ccc2c(c1)nc1n2CC[C@H]2[C@@H]1[C@H](c1cccc(Cl)c1F)[C@]1(C(=O)Nc3cc(Cl)ccc31)N2CC1CCCC1", "label 0"],
  ["Cc1c(C(=O)N(C)C)ccn2c3c(nc12)[C@@H]1[C@H](C3)N(CC2CC2)[C@@]2(C(=O)Nc3cc(Cl)ccc32)[C@H]1c1ccnc(Cl)c1F", "label 0"],
  ["CC(C)(C)CN1[C@H]2CCn3c(nc4cc(C(=O)O)ccc43)[C@H]2[C@H](c2cccc(Cl)c2F)[C@]12C(=O)Nc1cc(Cl)ccc12", "label 0"],
  ["O=C(O)c1ccc2nc3n(c2c1)C[C@H]1[C@@H]3[C@H](c2cccc(Cl)c2F)[C@]2(C(=O)Nc3cc(Cl)ccc32)N1CC1CC1 [Ib-179]", "label 1"],
  ["CCN1[C@H]2Cc3c4ccc(C(=O)NC5(C)COC5)cc4nn3[C@H]2[C@H](c2cccc(Cl)c2F)[C@]12C(=O)Nc1cc(Cl)ccc12", "label 0"],
  ["COCc1cccc(CN2[C@H]3Cn4c(nc5cc(C(=O)O)ccc54)[C@H]3[C@H](c3cccc(Cl)c3F)[C@]23C(=O)Nc2cc(Cl)ccc23)c1 [Ib-184]", "label 1"],
  ["Cc1cc2c(cc1C(=O)O)nc1n2CC[C@H]2[C@@H]1[C@H](c1cccc(Cl)c1F)[C@]1(C(=O)Nc3cc(Cl)ccc31)N2CC1CC1", "label 0"],
  ["CC(C)CN1[C@H]2CCn3c(nc4cc(C(=O)O)ccc43)[C@H]2[C@H](c2cccc(Cl)c2F)[C@]12C(=O)Nc1cc(Cl)ccc12 [Ib-109]", "label 0"],
  ["Cc1cc2c(cc1C(=O)O)nc1n2C[C@H]2[C@@H]1[C@H](c1cccc(Cl)c1F)[C@]1(C(=O)Nc3cc(Cl)ccc31)N2CC1CC1", "label 1"],
  ["O=C(O)c1ccc2c(c1)nc1n2CC[C@H]2[C@@H]1[C@H](c1cccc(Cl)c1F)[C@]1(C(=O)Nc3cc(Cl)ccc31)N2CC1CC1 [Ib-107]", "label 1"],
  ["O=C(O)c1ccc2c(c1)nc1n2CC[C@H]2[C@@H]1[C@H](c1cccc(Cl)c1F)[C@]1(C(=O)Nc3cc(Cl)ccc31)N2CC1CC1 [Ib-106]", "label 1"],
  ["CNC(=O)c1ccc2c(c1)nc1n2CC[C@H]2[C@@H]1[C@H](c1cccc(Cl)c1F)[C@]1(C(=O)Nc3cc(Cl)ccc31)N2CC1CC1", "label 1"],
  ["CN1CCN(C(=O)c2ccc3c(c2)nc2n3CC[C@H]3[C@@H]2[C@H](c2cccc(Cl)c2F)[C@]2(C(=O)Nc4cc(Cl)ccc42)N3CC2CC2)CC1", "label 0"],
  ["NCCNC(=O)c1ccc2c(c1)nc1n2CC[C@H]2[C@@H]1[C@H](c1cccc(Cl)c1F)[C@]1(C(=O)Nc3cc(Cl)ccc31)N2CC1CC1", "label 0"],
  ["CCN1[C@H]2Cc3c4ccc(C(=O)O)cc4nn3[C@H]2[C@H](c2cccc(Cl)c2F)[C@]12C(=O)Nc1cc(Cl)ccc12", "label 1"],
  ["CC(C)OCCN1[C@H]2CCn3c(nc4cc(C(=O)O)ccc43)[C@H]2[C@H](c2cccc(Cl)c2F)[C@]12C(=O)Nc1cc(Cl)ccc12", "label 0"],
  ["COc1cc2c3n(nc2cc1C(=O)O)[C@@H]1[C@H](C3)N(CC2CC2)[C@@]2(C(=O)Nc3cc(Cl)ccc32)[C@H]1c1cccc(Cl)c1F", "label 1"],
  ["CCOc1cccc(CN2[C@H]3CCn4c(nc5cc(C(=O)O)ccc54)[C@H]3[C@H](c3cccc(Cl)c3F)[C@]23C(=O)Nc2cc(Cl)ccc23)c1 [Ib-140]", "label 1"],
  ["O=C(O)c1ccc2c3n(nc2c1)[C@@H]1[C@H](C3)N(CC2CC2)[C@@]2(C(=O)Nc3nc(Cl)ccc32)[C@H]1c1cccc(Cl)c1F", "label 1"]
]}
